Listing of entries alongside the reported Dmax.
target: IKZF2 (Homo sapiens (Human), UniProt Q96SW2+Q9UKS7); experiment: In vitro IKZF2 FACS Assay in Jurkat cells; format: cell-based; conditions: 24 hrs, maximal degradation percentage
Sequence (Q9UKS7 whole entry): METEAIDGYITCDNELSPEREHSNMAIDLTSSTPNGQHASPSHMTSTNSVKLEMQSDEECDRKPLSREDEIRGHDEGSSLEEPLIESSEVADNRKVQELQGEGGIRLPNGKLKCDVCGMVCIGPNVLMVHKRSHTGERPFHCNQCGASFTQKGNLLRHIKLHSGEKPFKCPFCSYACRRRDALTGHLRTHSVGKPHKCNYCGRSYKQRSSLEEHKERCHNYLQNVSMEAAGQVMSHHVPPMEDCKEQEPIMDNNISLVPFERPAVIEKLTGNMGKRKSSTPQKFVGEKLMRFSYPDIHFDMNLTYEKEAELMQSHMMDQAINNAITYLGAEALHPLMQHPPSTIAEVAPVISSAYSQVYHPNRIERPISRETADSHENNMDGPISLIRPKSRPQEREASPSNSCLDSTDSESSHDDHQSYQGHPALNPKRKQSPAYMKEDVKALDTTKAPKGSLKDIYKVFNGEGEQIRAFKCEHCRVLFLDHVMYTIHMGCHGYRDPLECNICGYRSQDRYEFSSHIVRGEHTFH
Sequence (Q96SW2 whole entry): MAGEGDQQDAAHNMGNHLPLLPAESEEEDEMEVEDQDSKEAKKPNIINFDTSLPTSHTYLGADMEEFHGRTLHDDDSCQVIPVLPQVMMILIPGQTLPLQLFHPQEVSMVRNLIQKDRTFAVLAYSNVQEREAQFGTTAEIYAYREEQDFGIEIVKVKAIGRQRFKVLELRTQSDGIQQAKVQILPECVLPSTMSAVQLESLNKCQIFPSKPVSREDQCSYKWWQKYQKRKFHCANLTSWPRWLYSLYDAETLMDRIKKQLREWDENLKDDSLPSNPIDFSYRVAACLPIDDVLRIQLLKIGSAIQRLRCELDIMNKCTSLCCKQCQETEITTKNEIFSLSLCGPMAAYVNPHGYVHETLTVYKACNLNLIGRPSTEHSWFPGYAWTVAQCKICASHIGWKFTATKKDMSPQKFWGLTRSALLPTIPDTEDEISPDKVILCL
Sequence (Q16531 2-1140 partner): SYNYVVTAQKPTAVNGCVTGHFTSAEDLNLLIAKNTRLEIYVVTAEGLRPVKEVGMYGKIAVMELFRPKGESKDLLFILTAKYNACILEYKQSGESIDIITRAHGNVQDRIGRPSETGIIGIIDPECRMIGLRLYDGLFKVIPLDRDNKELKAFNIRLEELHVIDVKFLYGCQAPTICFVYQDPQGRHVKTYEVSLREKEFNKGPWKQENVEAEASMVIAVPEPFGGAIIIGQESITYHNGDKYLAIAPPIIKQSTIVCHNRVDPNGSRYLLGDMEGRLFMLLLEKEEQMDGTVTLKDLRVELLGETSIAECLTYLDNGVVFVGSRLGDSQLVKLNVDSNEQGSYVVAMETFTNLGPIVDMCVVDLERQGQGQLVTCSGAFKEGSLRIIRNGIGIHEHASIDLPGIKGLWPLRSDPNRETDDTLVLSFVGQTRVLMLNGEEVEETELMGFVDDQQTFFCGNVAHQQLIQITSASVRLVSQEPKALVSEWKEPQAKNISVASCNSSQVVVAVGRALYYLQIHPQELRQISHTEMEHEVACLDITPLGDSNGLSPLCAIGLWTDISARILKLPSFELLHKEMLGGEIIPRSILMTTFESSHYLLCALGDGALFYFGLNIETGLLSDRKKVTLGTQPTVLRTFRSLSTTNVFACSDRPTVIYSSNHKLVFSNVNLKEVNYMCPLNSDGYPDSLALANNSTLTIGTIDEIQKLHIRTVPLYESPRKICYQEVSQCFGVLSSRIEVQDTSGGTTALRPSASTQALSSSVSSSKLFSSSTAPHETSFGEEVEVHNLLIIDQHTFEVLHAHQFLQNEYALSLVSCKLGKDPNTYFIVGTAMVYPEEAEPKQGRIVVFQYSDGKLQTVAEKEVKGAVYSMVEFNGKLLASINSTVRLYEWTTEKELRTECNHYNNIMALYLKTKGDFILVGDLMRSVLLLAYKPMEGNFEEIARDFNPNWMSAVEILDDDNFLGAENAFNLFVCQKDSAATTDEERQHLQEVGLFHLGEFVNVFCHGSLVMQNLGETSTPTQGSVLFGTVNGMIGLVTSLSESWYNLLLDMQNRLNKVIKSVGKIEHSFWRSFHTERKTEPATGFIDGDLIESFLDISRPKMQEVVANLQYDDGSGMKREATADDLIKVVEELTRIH
measurement kind: Dmax

• O=C1CCC(N2Cc3cc(-c4cc(CN5CCCC5)c5nccc(OC6CCC6)c5n4)ccc3C2=O)C(=O)N1 (stereo not shown) [Example 239] = 60 to 80%
• CC(C)Nc1n[nH]c2c(CN3CCC4(CC3)COC4)cc(-c3ccc4c(c3F)CN(C3CCC(=O)NC3=O)C4=O)nc12 (stereo not shown) [Example 284] = 60 to 80%
• O=C1CCC(N2Cc3cc(-c4cc(CN5CCCC5)c5nccc(OC(F)F)c5n4)ccc3C2=O)C(=O)N1 (stereo not shown) [Example 249] = > 80%
• O=C1CCC(N2Cc3cc(-c4cc(CN5CC6CC6C5)cc5cncn45)ccc3C2=O)C(=O)N1 (stereo not shown) [Example 7] = 40 to 60%
• CCNc1n[nH]c2c(CN3CCCC3)cc(-c3ccc4c(c3F)CN(C3CCC(=O)NC3=O)C4=O)nc12 (stereo not shown) [Example 291] = > 80%
• Nc1[nH]nc2c(CN3CCCC3)cc(-c3ccc4c(c3F)CN(C3CCC(=O)NC3=O)C4=O)nc12 (stereo not shown) [Example 318] = > 80%
• Cn1ccc2cccc(CNCc3cc(-c4ccc5c(c4)CN(C4CCC(=O)NC4=O)C5=O)n4cncc4c3)c21 (stereo not shown) [Example 25] = < 20%

* * *

biological target: IKZF2 (Homo sapiens (Human), UniProt Q96SW2+Q9UKS7); assay: In vitro IKZF2 HiBit Assay (HEK293T Flp-in-HiBiT cells); format: cell-based; conditions: HEK-293T; HEK293T Flp-in-HiBiT cells, 6 hrs incubation; read-out: IKZF2 HiBit Dmax (%)
Listing of entries alongside the reported Dmax.
measurement kind: Dmax

• O=C1CCC(N2Cc3cc(-c4nc(CN5CCCC5)c5cc[nH]c5n4)ccc3C2=O)C(=O)N1 (stereo not drawn) = > 80%
• Cn1ccc2c(CN3CC4(CCC4)C3)cc(-c3ccc4c(c3)CN(C3CCC(=O)NC3=O)C4=O)nc21 (stereo not drawn) = > 80%
• Cn1ccc2c(CN3CCC(CO)C3)cc(-c3ccc4c(c3)CN(C3CCC(=O)NC3=O)C4=O)nc21 (stereo not drawn) = > 80%
• O=C1CCC(N2Cc3cc(-c4cc(CN5CC6COCC(C6)C5)c5ccn(C6COC6)c5n4)ccc3C2=O)C(=O)N1 (stereo not drawn) = 60 to 80%
• N#CC1CCN(Cc2cc(-c3ccc4c(c3)CN(C3CCC(=O)NC3=O)C4=O)nc3c2ccn3C2COC2)CC1 (stereo not drawn) = 60 to 80%
• Nc1nn(C2COC2)c2c(CN3CCCC3)cc(-c3ccc4c(c3)CN(C3CCC(=O)NC3=O)C4=O)nc12 (stereo not drawn) = 60 to 80%
• Cc1cc(-c2ccc3c(c2)CN(C2CCC(=O)NC2=O)C3=O)nc2c1CCN2CCO (stereo not drawn) = 40 to 60%
• CC1c2cc(-c3cc(CN4CCCC4)c4ccn(C5COC5)c4n3)ccc2C(=O)N1C1CCC(=O)NC1=O (stereo not drawn) = > 80%
• O=C1CCC(N2Cc3cc(-c4cc(CN5CCCC5)c5c(n4)NC(=O)C5)ccc3C2=O)C(=O)N1 (stereo not drawn) = 60 to 80%
• COCC1CCN(Cc2cc(-c3ccc4c(c3)CN(C3CCC(=O)NC3=O)C4=O)nc3c2ccn3C)C1 (stereo not drawn) = > 80%
• O=C1CCC(N2Cc3cc(-c4cc(CN5CCCC5)c5cnn(C6COC6)c5n4)ccc3C2=O)C(=O)N1 (stereo not drawn) = > 80%
• Cn1ccc2c(CN3CCOCC3)cc(-c3ccc4c(c3)CN(C3CCC(=O)NC3=O)C4=O)nc21 (stereo not drawn) = 60 to 80%
• CC(C)Nc1n[nH]c2c(CN3CCCC3)cc(-c3ccc4c(c3F)CN(C3CCC(=O)NC3=O)C4=O)nc12 (stereo not drawn) = > 80%
• O=C1CCC(N2Cc3cc(-c4cc(CN5CCCC5)c5ccn(Cc6ccccc6)c5n4)ccc3C2=O)C(=O)N1 (stereo not drawn) = 40 to 60%
• CNC(=O)Cn1ccc2c(CN3CCCC3)cc(-c3ccc4c(c3)CN(C3CCC(=O)NC3=O)C4=O)nc21 (stereo not drawn) = 60 to 80%
